Target: UniProt:P46098
Sequence (P46098 whole entry): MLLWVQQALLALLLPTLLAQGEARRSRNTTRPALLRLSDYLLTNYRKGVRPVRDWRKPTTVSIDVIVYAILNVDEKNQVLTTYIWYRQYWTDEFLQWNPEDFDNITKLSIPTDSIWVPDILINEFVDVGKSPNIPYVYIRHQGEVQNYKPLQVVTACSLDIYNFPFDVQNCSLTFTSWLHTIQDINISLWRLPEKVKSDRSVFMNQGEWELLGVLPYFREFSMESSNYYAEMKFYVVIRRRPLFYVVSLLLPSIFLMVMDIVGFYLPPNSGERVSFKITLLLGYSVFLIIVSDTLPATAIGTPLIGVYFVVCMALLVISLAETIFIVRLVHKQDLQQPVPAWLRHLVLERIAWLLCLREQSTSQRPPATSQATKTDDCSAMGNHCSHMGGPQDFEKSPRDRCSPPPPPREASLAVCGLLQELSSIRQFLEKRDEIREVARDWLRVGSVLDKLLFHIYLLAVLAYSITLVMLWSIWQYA
Test: GPCRScan assay: inhibition of 5-HT3
Parameters: radioligand conc. used [nm] 1.0 – 2.0, parental cells HEKT
Conditions: read-out: Ki
Reported pKi by item:
Bear in mind: pKi is minus log10 of a mol/L concentration; give just that figure.

compound: CN(C)[C@@H]1CCN(c2cc(-c3ccccc3)nc3ccnn23)C1 [(R)-ZINC-3573]
meas-value: 5.53

Please examine the following record next.
Query :: Query pKi on UniProt:P46098 for CN(C)[C@H]1CCN(c2cc(-c3ccccc3)nc3ccnn23)C1 [(S)-ZINC-3573]
Result :: 5.44

###

Target: 5-hydroxytryptamine receptor 1B (Homo sapiens, UniProt P28222)
Sequence (P28222 whole entry): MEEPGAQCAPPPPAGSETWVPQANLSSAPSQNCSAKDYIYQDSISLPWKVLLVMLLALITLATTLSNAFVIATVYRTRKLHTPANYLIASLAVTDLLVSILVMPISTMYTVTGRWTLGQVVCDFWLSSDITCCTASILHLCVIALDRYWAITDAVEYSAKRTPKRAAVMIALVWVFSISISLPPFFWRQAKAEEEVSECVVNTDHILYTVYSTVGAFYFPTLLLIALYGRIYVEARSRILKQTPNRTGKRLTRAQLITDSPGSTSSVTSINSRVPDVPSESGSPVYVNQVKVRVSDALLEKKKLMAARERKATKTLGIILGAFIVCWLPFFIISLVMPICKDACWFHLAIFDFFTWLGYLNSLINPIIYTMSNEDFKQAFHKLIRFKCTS
quantity-name: Ki
In your response, put the unit directly after the numeric value.

Query :: // Ki lookup, key: CN(C)[C@@H]1CCN(c2cc(-c3ccccc3)nc3ccnn23)C1 [(R)-ZINC-3573]
Result :: 3.24 µM

###

Target: GABA-A receptor; anion channel
Assay: GPCRScan assay: inhibition of GABAA/BZP
quantity-name: Ki (nM)
The reply should contain only the number, in nM.

Query :: // Ki lookup, key: CN(C)[C@@H]1CCN(c2cc(-c3ccccc3)nc3ccnn23)C1 [(R)-ZINC-3573]
Result :: 1940

###

Target: 5-hydroxytryptamine receptor 1D (Homo sapiens, UniProt P28221)
Sequence (P28221 whole entry): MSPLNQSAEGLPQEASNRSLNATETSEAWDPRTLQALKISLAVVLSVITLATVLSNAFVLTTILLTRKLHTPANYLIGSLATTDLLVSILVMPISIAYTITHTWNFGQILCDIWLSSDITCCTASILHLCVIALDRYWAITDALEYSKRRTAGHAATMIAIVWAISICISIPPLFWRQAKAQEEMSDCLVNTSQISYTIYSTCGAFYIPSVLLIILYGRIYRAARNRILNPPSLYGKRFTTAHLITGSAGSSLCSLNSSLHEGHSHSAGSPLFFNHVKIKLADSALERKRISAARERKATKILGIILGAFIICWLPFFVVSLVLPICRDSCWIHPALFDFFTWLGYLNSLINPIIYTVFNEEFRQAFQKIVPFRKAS
Test: GPCRScan assay: inhibition of 5-HT1D
Set-up: radioligand conc. used [nm] 1.0 – 2.0, parental cells HEKT
Conditions: read-out: Ki
Reported Ki by item:
The reply should contain only the number, in nM.

compound: CN(C)[C@H]1CCN(c2cc(-c3ccccc3)nc3ccnn23)C1 [(S)-ZINC-3573]
unit-of-measure: nM
Ki: 2960

Query :: // Ki lookup, key: CN(C)[C@@H]1CCN(c2cc(-c3ccccc3)nc3ccnn23)C1 [(R)-ZINC-3573]
Result :: 1740

###

Molecular target: Sigma intracellular receptor 2 (Homo sapiens, UniProt Q5BJF2)
Sequence (Q5BJF2 whole entry): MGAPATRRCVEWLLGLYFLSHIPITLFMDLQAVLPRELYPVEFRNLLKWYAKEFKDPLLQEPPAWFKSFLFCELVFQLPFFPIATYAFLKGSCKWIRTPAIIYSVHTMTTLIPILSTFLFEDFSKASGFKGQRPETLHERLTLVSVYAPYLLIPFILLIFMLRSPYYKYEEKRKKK
Experiment: GPCRScan assay: inhibition of Sigma 2
Parameters: radioligand conc. used [nm] 5.0, parental cells HEKT
Conditions: read-out: Ki
quantity-name: Ki (nM)
The reply should contain only the number, in nM.

compound: CN(C)[C@H]1CCN(c2cc(-c3ccccc3)nc3ccnn23)C1 [(S)-ZINC-3573]
unit-of-measure: nM
Ki: 973

Please examine the following record next.
Query :: Query Ki on Sigma intracellular receptor 2 (Homo sapiens, UniProt Q5BJF2) for CN(C)[C@@H]1CCN(c2cc(-c3ccccc3)nc3ccnn23)C1 [(R)-ZINC-3573]
Result :: 489

###

Target: Sodium-dependent dopamine transporter (Homo sapiens)
Sequence (Q01959 whole entry): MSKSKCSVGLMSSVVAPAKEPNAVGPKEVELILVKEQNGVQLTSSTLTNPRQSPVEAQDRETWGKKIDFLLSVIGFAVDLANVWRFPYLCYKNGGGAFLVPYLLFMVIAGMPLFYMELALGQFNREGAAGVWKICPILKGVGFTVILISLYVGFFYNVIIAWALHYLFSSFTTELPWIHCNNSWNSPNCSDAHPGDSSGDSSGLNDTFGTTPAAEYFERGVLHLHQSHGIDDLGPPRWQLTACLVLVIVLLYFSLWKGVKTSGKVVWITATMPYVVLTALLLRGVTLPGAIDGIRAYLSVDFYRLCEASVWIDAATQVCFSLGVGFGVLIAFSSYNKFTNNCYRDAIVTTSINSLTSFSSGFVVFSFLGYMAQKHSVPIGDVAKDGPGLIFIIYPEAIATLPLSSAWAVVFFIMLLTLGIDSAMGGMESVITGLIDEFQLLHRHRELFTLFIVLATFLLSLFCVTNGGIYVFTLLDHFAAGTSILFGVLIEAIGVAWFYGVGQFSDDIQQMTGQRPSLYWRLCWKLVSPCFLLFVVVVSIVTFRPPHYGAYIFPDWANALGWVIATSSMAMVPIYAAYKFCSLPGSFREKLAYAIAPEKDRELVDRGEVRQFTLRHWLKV
Assay: GPCRScan assay: inhibition of DAT
Set-up: radioligand conc. used [nm] 3.6 – 16.0, parental cells stable HEK
Conditions: read-out: Ki
quantity-name: pKi
Bear in mind: pKi is minus log10 of a mol/L concentration; give just that figure.

Query :: // pKi lookup, key: CN(C)[C@@H]1CCN(c2cc(-c3ccccc3)nc3ccnn23)C1 [(R)-ZINC-3573]
Result :: 5.95

###

Molecular target: UniProt:P50406
Sequence (P50406 whole entry): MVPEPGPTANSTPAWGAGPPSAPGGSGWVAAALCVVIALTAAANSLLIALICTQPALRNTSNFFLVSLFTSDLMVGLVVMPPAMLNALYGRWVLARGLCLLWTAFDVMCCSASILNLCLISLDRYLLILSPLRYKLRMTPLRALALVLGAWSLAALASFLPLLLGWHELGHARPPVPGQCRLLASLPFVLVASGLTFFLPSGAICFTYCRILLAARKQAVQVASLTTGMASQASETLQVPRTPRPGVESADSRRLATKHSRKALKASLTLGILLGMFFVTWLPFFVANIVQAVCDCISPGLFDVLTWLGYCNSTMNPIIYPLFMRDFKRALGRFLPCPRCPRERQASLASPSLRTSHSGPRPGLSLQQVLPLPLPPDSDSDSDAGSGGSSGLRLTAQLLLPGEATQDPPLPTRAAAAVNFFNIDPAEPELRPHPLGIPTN
Assay: GPCRScan assay: inhibition of 5-HT6
Parameters: radioligand conc. used [nm] 2.0 – 4.0, parental cells stable HEK
Details: read-out: Ki
Reported Ki by item:
The reply should contain only the number, in nM.

compound: CN(C)[C@@H]1CCN(c2cc(-c3ccccc3)nc3ccnn23)C1 [(R)-ZINC-3573]
quantity-name: Ki
unit-of-measure: nM
meas-value: 748

Please examine the following record next.
Query :: // Ki lookup, key: CN(C)[C@H]1CCN(c2cc(-c3ccccc3)nc3ccnn23)C1 [(S)-ZINC-3573]
Result :: 1090
